Biological target: Beta-1 adrenergic receptor (Cavia porcellus, UniProt B0FL73)
Sequence (B0FL73 whole entry): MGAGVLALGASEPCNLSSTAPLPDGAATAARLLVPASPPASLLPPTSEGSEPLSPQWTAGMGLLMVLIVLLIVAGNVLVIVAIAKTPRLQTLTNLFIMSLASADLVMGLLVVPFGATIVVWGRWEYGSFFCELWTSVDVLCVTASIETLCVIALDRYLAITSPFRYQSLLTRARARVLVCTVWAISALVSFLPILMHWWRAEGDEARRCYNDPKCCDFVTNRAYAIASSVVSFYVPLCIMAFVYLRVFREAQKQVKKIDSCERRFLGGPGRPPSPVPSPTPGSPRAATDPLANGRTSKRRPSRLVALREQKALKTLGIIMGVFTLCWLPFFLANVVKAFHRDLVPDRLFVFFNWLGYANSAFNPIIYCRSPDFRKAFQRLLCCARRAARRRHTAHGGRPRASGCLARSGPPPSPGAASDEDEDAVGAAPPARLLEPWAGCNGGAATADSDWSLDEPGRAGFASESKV
Assay: In vitro ability to block beta-1 adrenergic receptor in guinea pig right atria.
Conditions: read-out: pA2 (converted)
measured metric: Kb (nM)

{"molecule": "NCC(O)COc1cccc2ccccc12 (stereo unspecified)", "output unit": "nM", "Kb": 316}
{"molecule": "COC(=O)CNCC(O)COc1ccccc1C (stereo unspecified)", "output unit": "nM", "Kb": 3160}
{"molecule": "CCOC(=O)c1ccc(NCC(O)COc2ccccc2C)cc1 (stereo unspecified)", "output unit": "nM", "Kb": 7940}
{"molecule": "CCOC(=O)CCNCC(O)COc1ccc(OC)cc1 (stereo unspecified)", "output unit": "nM", "Kb": 1580}
{"molecule": "O=C(CCNCC(O)COc1ccccc1)OCC(F)(F)F (stereo unspecified)", "output unit": "nM", "Kb": 2000}

I: CC(C)CNCC(O)COc1ccccc1 (stereo unspecified)
II: NCC(O)COc1ccccc1 (stereo unspecified)
*Q* Exercise: compare I and II ; which one has the greater Kb? To answer, give the label that identifies your chosen option.
*A* II

P: CC(C)CNCC(O)COc1cccc2ccccc12 (stereo unspecified)
Q: CCOC(=O)CCNCC(O)COc1ccccc1C (stereo unspecified)
R: CCOC(=O)c1cccc(NCC(O)COc2ccccc2C)c1 (stereo unspecified)
*Q* Sort low-to-high on Kb, please. Please, when replying, give the labels in the order that was requested.
*A* P, Q, R

---

Target: Beta-2 adrenergic receptor (Cavia porcellus, UniProt Q8K4Z4)
Sequence (Q8K4Z4 whole entry): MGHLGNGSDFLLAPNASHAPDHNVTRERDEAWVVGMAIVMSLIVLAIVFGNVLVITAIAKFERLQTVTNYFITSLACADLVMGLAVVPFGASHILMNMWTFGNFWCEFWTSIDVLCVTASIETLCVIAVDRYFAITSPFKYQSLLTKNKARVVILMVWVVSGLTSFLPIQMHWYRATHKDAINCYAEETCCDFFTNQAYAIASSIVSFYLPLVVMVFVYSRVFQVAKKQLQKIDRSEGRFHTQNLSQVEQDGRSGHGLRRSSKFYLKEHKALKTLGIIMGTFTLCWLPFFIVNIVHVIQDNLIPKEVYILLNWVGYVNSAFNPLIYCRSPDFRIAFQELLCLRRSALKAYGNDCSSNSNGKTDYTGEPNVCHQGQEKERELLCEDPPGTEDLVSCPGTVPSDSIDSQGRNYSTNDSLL
Experiment: In vitro ability to block beta-2 adrenergic receptor in guinea pig trachea.
Assay type: tissue-based
Settings: read-out: pA2 (converted)
measured metric: Kb (nM)

{"compound": "COC(=O)CCNCC(O)COc1cccc2ccccc12 (stereo not drawn)", "measured metric": "Kb", "numeric value": 100}

a: NCC(O)COc1ccccc1 (stereo not drawn)
b: NCC(O)COc1cccc2ccccc12 (stereo not drawn)
*Q* Pick one, a or b : lowest reported Kb. To answer, give the label that identifies your chosen option.
*A* b
